STUDY TARGET: Cytochrome P450 3A4 (Homo sapiens, UniProt P08684)
Sequence (P08684 whole entry): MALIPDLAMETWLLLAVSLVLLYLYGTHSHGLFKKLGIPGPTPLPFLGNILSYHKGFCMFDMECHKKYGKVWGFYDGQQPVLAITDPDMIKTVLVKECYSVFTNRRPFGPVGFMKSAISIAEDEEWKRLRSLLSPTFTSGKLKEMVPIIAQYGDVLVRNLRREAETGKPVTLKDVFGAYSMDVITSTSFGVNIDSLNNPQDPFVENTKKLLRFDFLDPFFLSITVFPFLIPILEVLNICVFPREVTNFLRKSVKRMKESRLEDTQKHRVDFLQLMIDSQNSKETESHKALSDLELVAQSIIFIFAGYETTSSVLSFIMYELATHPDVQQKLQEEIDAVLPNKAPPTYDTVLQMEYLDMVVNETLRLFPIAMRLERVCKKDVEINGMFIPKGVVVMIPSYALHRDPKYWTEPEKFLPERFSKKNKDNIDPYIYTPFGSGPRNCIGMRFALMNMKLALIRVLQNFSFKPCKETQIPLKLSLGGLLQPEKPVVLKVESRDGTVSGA
ASSAY: Inhibition of CYP3A4 in human liver microsomes using midazolam as substrate preincubated for 10 mins followed by NADPH addition measured after 5 mins
Format: ADME
QUANTITY MEASURED: pIC50
Just so you know, pIC50 here is -log10 of the concentration in molar units; reply with that number alone.

Exercise: GET /values?readout=pIC50&item= CCCCC/C=C/C(=O)CCc1ccc(O)c(OC)c1
Key: 4.19

====

STUDY TARGET: CYP1A2 (Homo sapiens)
Sequence (P05177 whole entry): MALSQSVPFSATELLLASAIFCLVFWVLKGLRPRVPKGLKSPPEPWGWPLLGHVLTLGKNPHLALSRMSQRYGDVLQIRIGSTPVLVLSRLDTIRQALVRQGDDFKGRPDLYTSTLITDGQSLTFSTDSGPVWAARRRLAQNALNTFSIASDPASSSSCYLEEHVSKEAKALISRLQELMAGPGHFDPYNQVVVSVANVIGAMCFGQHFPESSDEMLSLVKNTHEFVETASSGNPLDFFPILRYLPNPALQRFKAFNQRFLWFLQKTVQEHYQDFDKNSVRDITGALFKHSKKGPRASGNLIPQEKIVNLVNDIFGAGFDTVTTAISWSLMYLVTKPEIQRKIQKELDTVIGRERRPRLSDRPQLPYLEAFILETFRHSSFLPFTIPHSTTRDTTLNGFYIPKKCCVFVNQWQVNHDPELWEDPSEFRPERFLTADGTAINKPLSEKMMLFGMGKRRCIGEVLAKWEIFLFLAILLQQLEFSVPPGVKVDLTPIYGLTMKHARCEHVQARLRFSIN
ASSAY: Inhibition of CYP1A2 in human liver microsomes assessed as enzyme-mediated metabolite formation at 3 uM using phenacetin as substrate incubated for 5 mins followed by NADPH addition measured after 30 mins by LC-MS/MS analysis relative to control
Assay type: ADME
Set-up: scale not given: the % may be the effect or the level left
PARTICULARS: probe phenacetin, read-out: Activity
QUANTITY MEASURED: activity at 0.5 h, 3 µM (%)
# unit: % | format: bare number

Exercise: GET /values?readout=activity at 0.5 h, 3 µM&item= CCCCCCCC(=O)CCc1ccc(O)c(OC)c1
Key: 72

FYI, the data here is from ChEMBL document CHEMBL4007467.
